Target system: Ghrelin/GHRP/GHS Receptor (Rattus norvegicus, UniProt O08725)
Sequence (O08725 whole entry): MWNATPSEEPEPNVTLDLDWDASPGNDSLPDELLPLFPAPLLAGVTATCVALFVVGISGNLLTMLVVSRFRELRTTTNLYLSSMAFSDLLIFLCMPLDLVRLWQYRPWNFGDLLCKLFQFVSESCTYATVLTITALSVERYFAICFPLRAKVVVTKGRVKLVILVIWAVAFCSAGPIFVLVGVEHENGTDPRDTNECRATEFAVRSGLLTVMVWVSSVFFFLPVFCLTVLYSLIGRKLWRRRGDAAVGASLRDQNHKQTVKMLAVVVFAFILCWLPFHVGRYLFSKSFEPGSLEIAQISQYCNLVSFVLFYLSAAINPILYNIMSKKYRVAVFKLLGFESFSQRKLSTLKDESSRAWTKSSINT
Experiment summary: In vitro GH release from cell culture of pituitary cells
Format: cell-based
Set-up: After dispersion, the cells were collected by centrifugation, wash with DMEM and placed into culture well; endogenous in cells; host or cells: dispersed primary rat anterior pituitary cells
Recorded conditions: Table 8; peptide antagonist dosage 10 (head prints μg/i.v.)
Where no end group is shown, it is not given here. [ ]: non-standard residue; d: D form. dCha = N[C@H](CC1CCCCC1)C(=O)O; dPal = not defined here; Aib = CC(C)(N)C(=O)O
# label = fulfilled if Unstimulated Basal GH release from cell cultures of pituitary cells >= 1000 ng/mL else not fulfilled

Worked examples, 5 substances total:
DPal-Trp-DPhe-Phe-Met-NH2 ([dPal]W[dF]FM-NH2; reading uncertain; also: printed as DPal-Trp-DPhe-Phe-Met-NH2)	not fulfilled
His-DTrp-DTrp-Lys-NH2 (H[dW][dW]K-NH2; N-terminus assumed; SMILES NCCCC[C@H](NC(=O)[C@@H](Cc1c[nH]c2ccccc12)NC(=O)[C@@H](Cc1c[nH]c2ccccc12)NC(=O)[C@@H](N)Cc1c[nH]cn1)C(N)=O)	not fulfilled
DPhe-Trp-DPhe-Phe-Met-NH2 ([dF]W[dF]FM-NH2; N-terminus assumed; SMILES CSCC[C@H](NC(=O)[C@H](Cc1ccccc1)NC(=O)[C@@H](Cc1ccccc1)NC(=O)[C@H](Cc1c[nH]c2ccccc12)NC(=O)[C@H](N)Cc1ccccc1)C(N)=O)	fulfilled
DPhe-Ala-Phe-DPhe-Lys-NH2 ([dF]AF[dF]K-NH2; N-terminus assumed; SMILES C[C@H](NC(=O)[C@H](N)Cc1ccccc1)C(=O)N[C@@H](Cc1ccccc1)C(=O)N[C@H](Cc1ccccc1)C(=O)N[C@@H](CCCCN)C(N)=O)	not fulfilled
DPhe-Ala-Phe-DPal-NH2 ([dF]AF[dPal]-NH2; reading uncertain; also: printed as DPhe-Ala-Phe-DPal-NH2)	not fulfilled

Could you now look at the following substance, please?
Test whether the substance αAib-DTrp-DcyclohexylAla-NH2 ([Aib]-[dW]-[dCha]-NH2; N-terminus assumed; SMILES CC(C)(N)C(=O)N[C@H](Cc1c[nH]c2ccccc12)C(=O)N[C@H](CC1CCCCC1)C(N)=O) records Unstimulated Basal GH release from cell cultures of pituitary cells of 1000 ng/mL or higher.
not fulfilled

---

Target system: Ghrelin/GHRP/GHS Receptor (Rattus norvegicus, UniProt O08725)
Experiment summary: In vitro GH release from cell culture of pituitary cells
Type: cell-based
Set-up: After dispersion, the cells were collected by centrifugation, wash with DMEM and placed into culture well; endogenous in cells; host or cells: dispersed primary rat anterior pituitary cells
Recorded conditions: Table 8; peptide antagonist dosage 100 (head prints μg/i.v.)
Where no end group is shown, it is not given here. [ ]: non-standard residue; d: D form.
Recorded Unstimulated Basal GH release from cell cultures of pituitary cells values for a group of substances are listed next.
Write the answer as a number in ng/mL, unit excluded.

Solved cases below.
Ac-DLys-Tyr-DTrp-DTrp-Phe-NH2 (Ac-[dK]Y[dW][dW]F-NH2; SMILES CC(=O)N[C@H](CCCCN)C(=O)N[C@@H](Cc1ccc(O)cc1)C(=O)N[C@H](Cc1c[nH]c2ccccc12)C(=O)N[C@H](Cc1c[nH]c2ccccc12)C(=O)N[C@@H](Cc1ccccc1)C(N)=O)	756
DPhe-Ala-Phe-DPhe-Lys-NH2 ([dF]AF[dF]K-NH2; N-terminus assumed; SMILES C[C@H](NC(=O)[C@H](N)Cc1ccccc1)C(=O)N[C@@H](Cc1ccccc1)C(=O)N[C@H](Cc1ccccc1)C(=O)N[C@@H](CCCCN)C(N)=O)	360

Now for the substance whose Unstimulated Basal GH release from cell cultures of pituitary cells we want.
// lookup Unstimulated Basal GH release from cell cultures of pituitary cells for Arg-DTrp-Leu-Tyr-Trp-Pro(cyclic Arg-Pro)
509

---

Below: a set of entries, each annotated with reported Unstimulated Basal GH release from cell cultures of pituitary cells.
Target system: Ghrelin/GHRP/GHS Receptor (Rattus norvegicus)
Experiment summary: In vitro GH release from cell culture of pituitary cells
Assay type: cell-based
Parameters: After dispersion, the cells were collected by centrifugation, wash with DMEM and placed into culture well; endogenous in cells; host or cells: dispersed primary rat anterior pituitary cells
Recorded conditions: Table 8; peptide antagonist dosage 10 (head prints μg/i.v.)
Where no end group is shown, it is not given here. [ ]: non-standard residue; d: D form. The star is where a group is joined. d2Nal = N[C@H](Cc1ccc2ccccc2c1)C(=O)O; Cha = N[C@@H](CC1CCCCC1)C(=O)O; Picolinoyl = O=C(c1ccccn1)*; dPal = not defined here; Aib = CC(C)(N)C(=O)O; iPr = CC(C)*
Supply the numeric figure in ng/mL, leaving out any unit text.

Examples with their reported Unstimulated Basal GH release from cell cultures of pituitary cells follow.
Ac-DβNal-PicLys-ILys-DPhe-NH2 (Ac-[d2Nal]K(Picolinoyl)K(iPr)[dF]-NH2; SMILES CC(=O)N[C@H](Cc1ccc2ccccc2c1)C(=O)N[C@@H](CCCCNC(=O)c1ccccn1)C(=O)N[C@@H](CCCCNC(C)C)C(=O)N[C@H](Cc1ccccc1)C(N)=O) [Ac-DβNal-PlcLys-ILys-DPhe-NH2]	976
αAib-DTrp-DAla-cyclohexylAla-NH2 ([Aib][dW][dA][Cha]-NH2; N-terminus assumed; SMILES C[C@@H](NC(=O)[C@@H](Cc1c[nH]c2ccccc12)NC(=O)C(C)(C)N)C(=O)N[C@@H](CC1CCCCC1)C(N)=O)	994

We now examine a further substance.
Tell me reported Unstimulated Basal GH release from cell cultures of pituitary cells for DPal-Phe-DTrp-Phe-Met-NH2 ([dPal]F[dW]FM-NH2; reading uncertain; also: printed as DPal-Phe-DTrp-Phe-Met-NH2) , tested with Ghrelin/GHRP/GHS Receptor (Rattus norvegicus).
997
